Values from ChEMBL document CHEMBL5724914

- conditionLabel: human gut metagenome, 24 h, 2 µM; further: call rule not given here
Where a SMILES comes first, the peptide text is derived from it. [ ]: non-standard residue; d: D form. pGlu = O=C1CC[C@@H](C(=O)O)N1; Thz = O=C(O)[C@@H]1CSCN1
testReadout: Bacterial Biotransformation

O=C1NCC2(CCN(CCc3ccccc3)CC2)O1 [FENSPIRIDE] = Compound NOT metabolized
CN1C(=O)CCS(=O)(=O)C1c1ccc(Cl)cc1 (stereo not drawn) = Compound NOT metabolized
CCCc1nn(C)c2c(=O)[nH]c(-c3cc(S(=O)(=O)N4CCN(C)CC4)ccc3OCC)nc12.O=C(O)CC(O)(CC(=O)O)C(=O)O [SILDENAFIL CITRATE] = Compound NOT metabolized
CCCC(=O)Nc1ccc(OCC(O)CNC(C)C)c(C(C)=O)c1 (stereo not drawn) = Compound NOT metabolized
CCN(CC)CCOCCOC(=O)C1(c2ccccc2)CCCC1.O=C(O)CC(O)(CC(=O)O)C(=O)O [CARBETAPENTANE CITRATE] = Compound metabolized
CCN(CC)CCOC(=O)C(Cc1cccc2ccccc12)CC1CCCO1.O=C(O)C(=O)O (stereo not drawn) [NAFRONYL OXALATE] = Compound metabolized
CCOC(=O)[C@H](CCc1ccccc1)N[C@@H](C)C(=O)N1[C@H](C(=O)O)C[C@H]2CCCC[C@@H]21 = Compound NOT metabolized
O=C1CC[C@@H](C(=O)N2CSC[C@H]2C(=O)O)N1 [PIDOTIMOD] ([pGlu]-[Thz]-OH) = Compound NOT metabolized

###

- conditionLabel: human gut metagenome, 24 h, 2 µM
testReadout: Bacterial Biotransformation

CCOC(=O)[C@H](CCc1ccccc1)N[C@@H](C)C(=O)N1[C@H](C(=O)O)C[C@H]2CCCC[C@@H]21 = Compound NOT metabolized
COc1ccccc1OCC(O)COC(N)=O (stereo not given) = Compound NOT metabolized
O=P(O)(O)O.c1ccc(CN(CC2=NCCN2)c2ccccc2)cc1 [ANTAZOLINE PHOSPHATE] = Compound NOT metabolized
CS(=O)(=O)O.OC(CCN1CCCCC1)(c1ccccc1)c1ccccc1 [PRIDINOL METHANESULFONATE] = Compound NOT metabolized
NC12CC3CC(CC(C3)C1)C2 = Compound NOT metabolized

###

- testMethodNotes: The drug is tested on WLS-073 corresponding to human gut metagenome with ENA study accession number: PRJEB37062 and ENA sample accession number: ERS12561749 for biotransformation under anaerobic condition. The drug concentrations were measured over 9 timepoints collected between 0 and 24 hours of incubation by liquid-chromatography-coupled mass spectrometry (LC–MS)
- conditionLabel: 2 µM
testReadout: Bacterial Biotransformation

O=c1[nH]c2ccccc2n1C1CCN(CCCC(c2ccc(F)cc2)c2ccc(F)cc2)CC1 [PIMOZIDE] = Compound metabolized
COc1ccc2[nH]c([S+]([O-])Cc3ncc(C)c(OC)c3C)nc2c1 (centres undefined) = Compound metabolized
CCN(CC)CCOCCOC(=O)C1(c2ccccc2)CCCC1.O=C(O)CC(O)(CC(=O)O)C(=O)O [CARBETAPENTANE CITRATE] = Compound metabolized

###

- testMethodNotes: The drug is tested on Z-018 corresponding to pig gut metagenome with ENA study accession number: PRJEB37062 and ENA sample accession number: ERS12561817 for biotransformation under anaerobic condition. The drug concentrations were measured over 9 timepoints collected between 0 and 24 hours of incubation by liquid-chromatography-coupled mass spectrometry (LC–MS)
- conditionLabel: 2 µM
testReadout: Bacterial Biotransformation

C[C@@H]1C[C@H]2[C@@H]3CCC4=CC(=O)C=C[C@]4(C)[C@@]3(F)[C@@H](O)C[C@]2(C)[C@@]1(O)C(=O)CO [DEXAMETHASONE] = Compound metabolized
CN(C)CCC=C1c2ccccc2C=Cc2ccccc21 [CYCLOBENZAPRINE] = Compound metabolized
O=C1NCC2(CCN(CCc3ccccc3)CC2)O1 [FENSPIRIDE] = Compound NOT metabolized
COc1cc2nc(N3CCN(C(=O)c4ccco4)CC3)nc(N)c2cc1OC [PRAZOSIN] = Compound NOT metabolized

###

- testMethodNotes: The drug is tested on Z-021 corresponding to metagenome with ENA study accession number: PRJEB37062 and ENA sample accession number: ERS12561820 for biotransformation under anaerobic condition. The drug concentrations were measured over 9 timepoints collected between 0 and 24 hours of incubation by liquid-chromatography-coupled mass spectrometry (LC–MS)
- conditionLabel: 2 µM
testReadout: Bacterial Biotransformation

CNS(=O)(=O)Cc1ccc2[nH]cc(CCN(C)C)c2c1.O=C(O)CCC(=O)O [SUMATRIPTAN SUCCINATE] = Compound NOT metabolized
Cc1ccc(/C(=C\CN2CCCC2)c2ccccn2)cc1 = Compound NOT metabolized
CC(C)c1nc(CN(C)C(=O)N[C@H](C(=O)N[C@@H](Cc2ccccc2)C[C@H](O)[C@H](Cc2ccccc2)NC(=O)OCc2cncs2)C(C)C)cs1 = Compound NOT metabolized
CN(C)CC(c1ccc(O)cc1)C1(O)CCCCC1.O=C(O)CCC(=O)O (centres undefined) [DESVENLAFAXINE SUCCINATE] = Compound NOT metabolized

###

- conditionLabel: human gut metagenome, 24 h, 2 µM
testReadout: Bacterial Biotransformation

CCOC(=O)[C@H](CCc1ccccc1)N[C@H]1CCc2ccccc2N(CC(=O)O)C1=O = Compound metabolized
CCCCCCOC(=O)/N=C(/N)c1ccc(NCc2nc3cc(C(=O)N(CCC(=O)OCC)c4ccccn4)ccc3n2C)cc1.CS(=O)(=O)O [DABIGATRAN ETEXILATE MESYLATE] = Compound NOT metabolized
CN/C(=N/CCSCc1nc[nH]c1C)NC#N = Compound NOT metabolized
CN1CCC(=C2c3ccccc3CCc3cccnc32)CC1.O=C(O)/C=C\C(=O)O.O=C(O)/C=C\C(=O)O [AZATADINE MALEATE] = Compound NOT metabolized
CC(C)c1c(C(=O)Nc2ccccc2)c(-c2ccccc2)c(-c2ccc(F)cc2)n1CC[C@@H](O)C[C@@H](O)CC(=O)O = Compound metabolized
CCCC1O[C@@H]2C[C@H]3[C@@H]4CCC5=CC(=O)C=C[C@]5(C)[C@H]4[C@@H](O)C[C@]3(C)[C@]2(C(=O)CO)O1 (stereo partly drawn) [BUDESONIDE] = Compound metabolized
NC(CO)(CO)CO.O=C(c1ccccc1)c1ccc2n1CCC2C(=O)O (stereo not drawn) = Compound metabolized
Nc1nc2ccc(OC(F)(F)F)cc2s1 = Compound NOT metabolized

###

- conditionLabel: human gut metagenome, 24 h, 2 µM
testReadout: Bacterial Biotransformation

CN1C[C@H](C(=O)N[C@]2(C)O[C@@]3(O)[C@@H]4CCCN4C(=O)[C@H](Cc4ccccc4)N3C2=O)C=C2c3cccc4[nH]cc(c34)C[C@H]21.CN1C[C@H](C(=O)N[C@]2(C)O[C@@]3(O)[C@@H]4CCCN4C(=O)[C@H](Cc4ccccc4)N3C2=O)C=C2c3cccc4[nH]cc(c34)C[C@H]21.O=C(O)C(O)C(O)C(=O)O [ERGOTAMINE TARTRATE] = Compound metabolized
O=C(CCCN1CCC(O)(c2ccc(Cl)cc2)CC1)c1ccc(F)cc1 = Compound NOT metabolized
CC(=O)CC(c1ccccc1)c1c(O)c2ccccc2oc1=O (configuration not stated) = Compound metabolized
CC(C)c1nc(CN(C)C(=O)N[C@H](C(=O)N[C@@H](Cc2ccccc2)C[C@H](O)[C@H](Cc2ccccc2)NC(=O)OCc2cncs2)C(C)C)cs1 = Compound NOT metabolized
CN1CCc2c(c3ccccc3n2Cc2ccccc2)C1.CN1CCc2c(c3ccccc3n2Cc2ccccc2)C1.O=S(=O)(O)c1cccc2c(S(=O)(=O)O)cccc12 = Compound NOT metabolized
CCCCCOC(=O)Nc1nc(=O)n([C@@H]2O[C@H](C)[C@@H](O)[C@H]2O)cc1F = Compound metabolized
CC[C@@H](CO)NC(=O)[C@@H]1C=C2c3cccc4c3c(cn4C)C[C@H]2N(C)C1.O=C(O)/C=C\C(=O)O [METHYSERGIDE MALEATE] = Compound NOT metabolized
OC(CCN1CCCCC1)(c1ccccc1)C1CCCCC1 (configuration not stated) = Compound NOT metabolized
NS(=O)(=O)c1cc2c(cc1Cl)N=C(CSCc1ccccc1)NS2(=O)=O [BENZTHIAZIDE] = Compound NOT metabolized
CC(Oc1c(Cl)cccc1Cl)C1=NCCN1 (configuration not stated) = Compound NOT metabolized
O=C(Nc1ccccc1)OCC(CN1CCCCC1)OC(=O)Nc1ccccc1 (configuration not stated) = Compound NOT metabolized
C[C@@H]1CC[C@H]2[C@@H](C)C(=O)O[C@@H]3O[C@@]4(C)CC[C@@H]1[C@]32OO4 = Compound metabolized
CCCCC1=NC2(CCCC2)C(=O)N1Cc1ccc(-c2ccccc2-c2nnn[nH]2)cc1 = Compound metabolized
CCCC1O[C@@H]2C[C@H]3[C@@H]4CCC5=CC(=O)C=C[C@]5(C)[C@H]4[C@@H](O)C[C@]3(C)[C@]2(C(=O)CO)O1 (some centres not stated) [BUDESONIDE] = Compound metabolized
CNC(=C[N+](=O)[O-])NCCSCc1ccc(CN(C)C)o1 = Compound NOT metabolized
CN1CCN(C(=O)O[C@H]2c3nccnc3C(=O)N2c2ccc(Cl)cn2)CC1 = Compound NOT metabolized
CCN(CC)CCNC(C(=O)OCCC(C)C)c1ccccc1.Cl.Cl (configuration not stated) = Compound metabolized
CCN1CCCC1CNC(=O)c1cc(S(N)(=O)=O)ccc1OC (configuration not stated) [SULPIRIDE] = Compound NOT metabolized
COc1ccc2c(c1OC)C(=O)O[C@@H]2[C@H]1c2c(cc3c(c2OC)OCO3)CCN1C = Compound NOT metabolized
CCc1nc(N)nc(N)c1-c1ccc(Cl)cc1 = Compound NOT metabolized
C[C@@H]1C[C@H]2[C@@H]3CCC4=CC(=O)C=C[C@]4(C)[C@@]3(F)[C@@H](O)C[C@]2(C)[C@@]1(O)C(=O)CO = Compound NOT metabolized
C=CCN1CC[C@]23c4c5ccc(O)c4O[C@H]2C(=O)CC[C@@]3(O)[C@H]1C5 = Compound NOT metabolized
CC(CN(C)C)CN1c2ccccc2CCc2ccccc21.O=C(O)/C=C\C(=O)O (configuration not stated) [TRIMIPRAMINE MALEATE] = Compound metabolized
Clc1ccc(Cn2c(CN3CCCC3)nc3ccccc32)cc1 = Compound metabolized
COc1c2occc2cc2ccc(=O)oc12 = Compound metabolized
Cc1nc2n(c(=O)c1CCN1CCC(c3noc4cc(F)ccc34)CC1)CCCC2O (configuration not stated) = Compound NOT metabolized
CNCCC(Oc1ccc(C(F)(F)F)cc1)c1ccccc1 (configuration not stated) = Compound NOT metabolized
Nc1ccc(/N=N/c2ccccc2)c(N)n1 = Compound metabolized
CC(C)NCC(O)COc1ccc(CCOCC2CC2)cc1 (configuration not stated) = Compound NOT metabolized
COc1ccc(CCN(C)CCCC(C#N)(c2ccc(OC)c(OC)c2)C(C)C)cc1OC (configuration not stated) = Compound NOT metabolized
CO[C@]12C[C@@H](COC(=O)c3cncc(Br)c3)CN(C)[C@@H]1Cc1cn(C)c3cccc2c13 = Compound NOT metabolized
COc1ccccc1OCC(O)COC(N)=O (configuration not stated) = Compound NOT metabolized
